target_entity: T1, SCRIB-3/4 (MBP fusion of the third of the four PDZ domains of SCRIB) (human, UniProt Q14160-1 997-1093)
T1 construct: also called MBP-PDZ analyte SCRIB-3/4; source: E. coli BL21 DE3, purified (amylose column, Superdex 75 gel filtration)
T1 sequence (looked up): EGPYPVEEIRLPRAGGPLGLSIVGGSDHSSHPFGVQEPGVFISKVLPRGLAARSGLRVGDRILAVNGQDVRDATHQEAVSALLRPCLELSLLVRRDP
assay_info: SPR
study_conditions: both partners purified
Ends that are not written are not given here. * marks the point of attachment. Biotin = O=C1N[C@H]2[C@H](CS[C@H]2CCCCC(=O)*)N1
value_type: log10(Kd) (log10 of the value in µM)
Scale: log10; quantity: Kd; unit before log: µM

1) Biotin-GSGAGIESNV (also called TANC1 short; source: synthetic peptide (JPT Peptide Technologies))	2.70
2) Biotin-PKRSFIESNV (also called TANC1 long; source: synthetic peptide (JPT Peptide Technologies))	1.59
3) Biotin-GSGAGKETSF (also called GLUT7 short; source: synthetic peptide (JPT Peptide Technologies))	1.75
4) Biotin-SSRTRRETQL (source: synthetic peptide (JPT Peptide Technologies)) [16E6 (long peptide of HPV16 early protein E6: the last ten residues)]	1.26
5) Biotin-SEKHFRETEV (also called TAX1 long; HTLV1 Tax1; source: synthetic peptide (JPT Peptide Technologies))	1.46

Consider the record given below.
Q) Identify log10(Kd) associated with the binder Biotin-TASPAKETSF (also called GLUT7 long; source: synthetic peptide (JPT Peptide Technologies))
A) 1.65
